- Tested on: Plasmodium falciparum
- protocolText: Antimalarial activity against Plasmodium falciparum NF54
- Type: functional, organism-based
reportedProperty: IC50 (nM)
Form entry: value (nM) — number only.

Challenge: Report value: IC50, system: Plasmodium falciparum, compound: OCC(O)COCc1ccc2cc(CO[C@H]3CNCC[C@@H]3c3ccc(OCCCOCc4ccccc4)cc3)ccc2c1 (some centres not stated)
Response given: 110

Challenge: Report value: IC50, system: Plasmodium falciparum, compound: COc1cccc(C(=O)OCc2ccc([C@H]3CCNC[C@@H]3OCc3ccc4ccccc4c3O)cc2)c1
Response given: 50

---

reportedProperty: IC50 (µM)
Form entry: value (µM) — number only.

Challenge: Report value: IC50, system: UniProt:P14091, molecule: c1ccc2cc(COC3C4CCC(N4)C3Oc3ccc(OCCSc4nc5ccccc5s4)cc3)ccc2c1 (stereo not given)
Sequence (P14091 whole entry): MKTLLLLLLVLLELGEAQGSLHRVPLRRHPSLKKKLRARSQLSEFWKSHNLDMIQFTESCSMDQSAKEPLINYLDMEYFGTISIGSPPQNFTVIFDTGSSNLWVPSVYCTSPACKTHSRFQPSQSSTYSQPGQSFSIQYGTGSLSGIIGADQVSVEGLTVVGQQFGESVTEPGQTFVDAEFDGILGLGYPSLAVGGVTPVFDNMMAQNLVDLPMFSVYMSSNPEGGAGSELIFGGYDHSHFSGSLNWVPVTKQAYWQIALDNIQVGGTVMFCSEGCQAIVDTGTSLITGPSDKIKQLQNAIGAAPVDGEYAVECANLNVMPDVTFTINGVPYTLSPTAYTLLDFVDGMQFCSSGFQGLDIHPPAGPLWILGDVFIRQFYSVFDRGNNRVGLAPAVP
Response given: 20

Challenge: Report value: IC50, system: UniProt:P14091, molecule: CCCCCc1ccc(N(C[C@@H]2CCC(=O)C(F)(F)C2)C(=O)Cc2ccc3ccccc3c2)cc1
Response given: 87

Challenge: Report value: IC50, system: UniProt:P14091, molecule: CCCCCc1ccc(S(=O)(=O)C2C3NC(CC3CNC3CCCC3)C2NCc2ccc3ccccc3c2)cc1 (stereo not given)
Response given: 7.55

Challenge: Report value: IC50, system: UniProt:P14091, molecule: CCCCCCc1ccc(S(=O)(=O)C2C3CCC(N3)C2NCc2ccc3ccccc3c2)cc1 (stereo not given)
Response given: 7.05

Challenge: Report value: IC50, system: UniProt:P14091, molecule: Clc1ccc2sc(SCCCc3ccc(OC4C5CCC(N5)C4OCc4ccc5ccccc5c4)cc3)nc2c1 (stereo not given)
Response given: 4
